tested on: UACC-62 melanoma; experiment: NCI tumour cell line growth inhibition, 48 h
*1 amine or outer side, *2 acyl side, *3 side chain or, on linkers, in order; H or OH if unused. Where a SMILES comes first, the peptide text is derived from it. [ ]: non-standard residue; d: D form. X33 = C=CCC(O[*:1])C(=O)[*:2]; NMeV = CN[CH](C(=O)O)C(C)C; NMeA = CN[CH](C)C(=O)O; βAla = NCCC(=O)O
VALUE_KIND: log10 TGI (log10 of the value in µM)
Transform log10 | Measure TGI | Unit µM

Task item: Any idea what its log10 TGI is? The molecule is C=CCC1OC(=O)CCNC(=O)C(C)N(C)C(=O)C(C(C)C)N(C)C(=O)C(C(C)CC)NC(=O)C2CCCN2C1=O (centres undefined) (cyclo([X33]PI[NMeV][NMeA][βAla]); configuration not given here)
Reply: 0.87

Task item: Any idea what its log10 TGI is? The molecule is "CN(C)CCn1c(=O)c2ccc3c4c(nn3CCN(C)C)c3cc(O)ccc3n(c1=O)c24"
Reply: -0.23

Task item: Any idea what its log10 TGI is? The molecule is COc1cc(C2C3=C(COC3=O)Nc3cc4c(cc32)CCC4)cc2c1OCO2 (centres undefined)
Reply: 1.25

Task item: Any idea what its log10 TGI is? The molecule is COC(=O)C(F)C(Br)C(=O)OC (centres undefined)
Reply: 1.48

Task item: Any idea what its log10 TGI is? The molecule is CC1OC1C(=O)C1(O)C(C)C(O)C23OC2(C(O)c2c(O)cccc2C3=O)C1O (centres undefined)
Reply: -0.19

---

system: UACC-62 melanoma; assay: NCI tumour cell line growth inhibition, 48 h
VALUE_KIND: TGI

Task item: Any idea what its TGI is? The compound is "O=C(/C=C/c1ccc(Cl)cc1)c1cccs1"
Reply: 49.2 µM

Task item: Any idea what its TGI is? The compound is "O=C1[C@@H]2C[C@@H](O)CN2C(=O)c2ccccc2N1CCCO"
Reply: > 100 µM

Task item: Any idea what its TGI is? The compound is COc1ccc2c(c1)C(C)Cc1c(Cl)nc(C)nc1N2C (stereo not given)
Reply: 36.2 µM

Task item: Any idea what its TGI is? The compound is CC(=O)N(CN1C(=O)CCC1C(=O)O)c1cccc(O)c1 (stereo not given)
Reply: > 100 µM

Task item: Any idea what its TGI is? The compound is "CCNCCNc1cc(C2CCCCC2)c(C#N)c2nc3ccccc3n12"
Reply: 3.75 µM

Task item: Any idea what its TGI is? The compound is "c1ccc(C2OCCO2)c(OCCOc2cc(OCCOc3ccccc3C3OCCO3)c(OCCOc3ccccc3C3OCCO3)cc2OCCOc2ccccc2C2OCCO2)c1"
Reply: 37.6 µM

Task item: Any idea what its TGI is? The compound is COC1=CC(=O)c2c(O)c3c(c(O)c2C1=O)C=C(C)OC3O (stereo not given)
Reply: 1.85 µM

Task item: Any idea what its TGI is? The compound is "COc1ccc(-c2cc(=O)c3cc4c(cc3[nH]2)OCO4)cc1"
Reply: > 100 µM

Task item: Any idea what its TGI is? The compound is "COc1cc(C(=O)/C=C/c2cccnc2Nc2ccccc2)cc(OC)c1OC"
Reply: 2.6 µM

Task item: Any idea what its TGI is? The compound is "Cc1ccc(Nc2nc(NS(=O)(=O)c3cc(C(=O)Nc4ccc(Cl)cc4)c(Cl)cc3S)n[nH]2)cc1"
Reply: > 100 µM
